measurementDescription: chemical genetic growth profiling, strain panel (AID 1159580);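 further: tested at 20 µM; growth read once vehicle control cultures reached saturation at 30 °C; 1 = growth at the plate median or of vehicle wells; lower values mean less growth of the strain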
conditionLabel: S. cerevisiae deletion strains, growth OD, locus YDL214C, strain PRR2, stronger effect = lower value
Out of some 5,500 compounds screened, about 2,000 (36%) were called active. About 18% were inconclusive and are not listed. This is one part of the list.
attributeMeasured: normalized growth

{"molecule": "Cc1cc(Cl)ccc1NNC(=O)c1snnc1C", "attributeMeasured": "normalized growth", "reported": 0.907}
{"molecule": "Cc1nnsc1C(=O)Nc1cc(C(F)(F)F)cc(C(F)(F)F)c1", "attributeMeasured": "normalized growth", "reported": 0.987}
{"molecule": "O=C1C(=O)N(CN2CCc3c([nH]c4ccccc34)C2C(F)(F)F)c2ccc(F)cc21 (stereo not given)", "attributeMeasured": "normalized growth", "reported": 0.841}
{"molecule": "COc1cc(NC(=S)NC(=O)c2ccccc2)c(OC)cc1Cl", "attributeMeasured": "normalized growth", "reported": 0.962}
{"molecule": "CC(C)(C)CN/C(C#N)=C(/C#N)NCc1cccc(Cl)c1", "attributeMeasured": "normalized growth", "reported": 0.991}

Entry source: PubChem BioAssay AID1159580
